- METHOD_NOTES: Biodistribution in BxPC3-luc tumor-bearing mice
- Assay type: in vivo, BALB/c nu/nu mice
- DETAILS: female, BALB/c nu/nu, mouse, small intestine, iv, 74 kBq, total radioactivity; 10 min post-injection, i.v.; read-out: Biodistribution, Small intestine
Where a SMILES comes first, the peptide text is derived from it. The star is where a group is joined. DOTA = O=C(O)CN1CCN(CC(=O)O)CCN(CC(=O)*)CCN(CC(=O)O)CC1; AEEA = NCCOCCOCC(=O)O
READOUT: tissue uptake at 10 min (%ID/g)
All answers are understood in %ID/g, so give the number only.

## Task Name the reported tissue uptake at 10 min value associated with the compound CC[C@H](C)[C@H](NC(=O)COCCOCCNC(=O)CN1CCN(CC(=O)O)CCN(CC(=O)O)CCN(CC(=O)O)CC1)C(=O)N1CCC[C@H]1C(=O)N[C@@H](CC(C)C)C(=O)N1CCC[C@H]1C(=O)N1CCC[C@H]1C(=O)N1CCC[C@H]1C(=O)N[C@@H](CCCNC(=N)N)C(=O)N[C@@H](CCCNC(=N)N)C(=O)N1CCC[C@H]1C(=O)N[C@@H](Cc1ccccc1)C(=O)N[C@@H](Cc1ccccc1)C(=O)N[C@@H](CCCCN)C(=O)O [[^67Ga]27, [^67Ga]Ga-DOTA-EG2-IPLPPPRRPFFK, metal not drawn] ({DOTA-AEEA}-IPLPPPRRPFFK-OH)
## Result 1.16

====

- METHOD_NOTES: Biodistribution in BxPC3-luc tumor-bearing mice
- Type: in vivo, BALB/c nu/nu mice
- DETAILS: female, BALB/c nu/nu, lung, iv, total radioactivity; 1 h, blocking: co-injection of IPLPPPRRPFFK 1 mg/mouse; read-out: Biodistribution, Lung
Where a SMILES comes first, the peptide text is derived from it. The star is where a group is joined. DOTA = O=C(O)CN1CCN(CC(=O)O)CCN(CC(=O)*)CCN(CC(=O)O)CC1; AEEA = NCCOCCOCC(=O)O
READOUT: tissue uptake at 1 h (%ID/g)
All answers are understood in %ID/g, so give the number only.

## Task Name the reported tissue uptake at 1 h value associated with the compound CC[C@H](C)[C@H](NC(=O)COCCOCCNC(=O)CN1CCN(CC(=O)O)CCN(CC(=O)O)CCN(CC(=O)O)CC1)C(=O)N1CCC[C@H]1C(=O)N[C@@H](CC(C)C)C(=O)N1CCC[C@H]1C(=O)N1CCC[C@H]1C(=O)N1CCC[C@H]1C(=O)N[C@@H](CCCNC(=N)N)C(=O)N[C@@H](CCCNC(=N)N)C(=O)N1CCC[C@H]1C(=O)N[C@@H](Cc1ccccc1)C(=O)N[C@@H](Cc1ccccc1)C(=O)N[C@@H](CCCCN)C(=O)O [[^67Ga]27, [^67Ga]Ga-DOTA-EG2-IPLPPPRRPFFK, metal not drawn] ({DOTA-AEEA}-IPLPPPRRPFFK-OH)
## Result 0.66

====

- METHOD_NOTES: Biodistribution in BxPC3-luc tumor-bearing mice
- Type: in vivo, BALB/c nu/nu mice
- DETAILS: female, BALB/c nu/nu, mouse, brain, iv, 74 kBq, total radioactivity; 1 h post-injection, i.v.; read-out: Biodistribution, Brain
Where a SMILES comes first, the peptide text is derived from it. The star is where a group is joined. DOTA = O=C(O)CN1CCN(CC(=O)O)CCN(CC(=O)*)CCN(CC(=O)O)CC1; AEEA = NCCOCCOCC(=O)O
READOUT: tissue uptake at 1 h

## Task Name the reported tissue uptake at 1 h value associated with the molecule CC[C@H](C)[C@H](NC(=O)COCCOCCNC(=O)CN1CCN(CC(=O)O)CCN(CC(=O)O)CCN(CC(=O)O)CC1)C(=O)N1CCC[C@H]1C(=O)N[C@@H](CC(C)C)C(=O)N1CCC[C@H]1C(=O)N1CCC[C@H]1C(=O)N1CCC[C@H]1C(=O)N[C@@H](CCCNC(=N)N)C(=O)N[C@@H](CCCNC(=N)N)C(=O)N1CCC[C@H]1C(=O)N[C@@H](Cc1ccccc1)C(=O)N[C@@H](Cc1ccccc1)C(=O)N[C@@H](CCCCN)C(=O)O [[^67Ga]27, [^67Ga]Ga-DOTA-EG2-IPLPPPRRPFFK, metal not drawn] ({DOTA-AEEA}-IPLPPPRRPFFK-OH)
## Result 0.01 %ID/g
